FYI, the data here is from ChEMBL document CHEMBL3808316.

Parameter: inhibition. Scope: all listed entries.
# experimental target: Mu-type opioid receptor (Rattus norvegicus)
# experiment summary: Displacement of [3H]diprenorphine from rat mu opioid receptor expressed in CHO cell membranes at 10^-6 M after 30 mins by liquid scintillation counting analysis
Give just the number in %; leave the unit off.

Asked: Quote inhibition reported for COc1ccc2c(c1)C(C[N+]1(C)CCCC1)N(C(=O)C1CC(=O)c3ccc(Cl)cc31)CC2 (stereo not drawn) please.
Given back: 0

Asked: Supply inhibition value. Item: CC[N+]1(CC2c3ccccc3CCN2C(=O)C2CC(=O)c3ccc(Cl)cc32)CCCC1 (stereo not drawn)
Given back: 0

Asked: Assign inhibition to the following record: O=C1CC(C(=O)N2CCc3ccccc3C2C[N+]2(CC3CC3)CCCC2)c2cc(Cl)ccc21 (stereo not drawn)
Given back: 29.2
